Target: GluN1–GluN2B^WT (Homo sapiens, UniProt Q05586+Q13224)
Sequence (Q13224 27-1484, other chains not shown): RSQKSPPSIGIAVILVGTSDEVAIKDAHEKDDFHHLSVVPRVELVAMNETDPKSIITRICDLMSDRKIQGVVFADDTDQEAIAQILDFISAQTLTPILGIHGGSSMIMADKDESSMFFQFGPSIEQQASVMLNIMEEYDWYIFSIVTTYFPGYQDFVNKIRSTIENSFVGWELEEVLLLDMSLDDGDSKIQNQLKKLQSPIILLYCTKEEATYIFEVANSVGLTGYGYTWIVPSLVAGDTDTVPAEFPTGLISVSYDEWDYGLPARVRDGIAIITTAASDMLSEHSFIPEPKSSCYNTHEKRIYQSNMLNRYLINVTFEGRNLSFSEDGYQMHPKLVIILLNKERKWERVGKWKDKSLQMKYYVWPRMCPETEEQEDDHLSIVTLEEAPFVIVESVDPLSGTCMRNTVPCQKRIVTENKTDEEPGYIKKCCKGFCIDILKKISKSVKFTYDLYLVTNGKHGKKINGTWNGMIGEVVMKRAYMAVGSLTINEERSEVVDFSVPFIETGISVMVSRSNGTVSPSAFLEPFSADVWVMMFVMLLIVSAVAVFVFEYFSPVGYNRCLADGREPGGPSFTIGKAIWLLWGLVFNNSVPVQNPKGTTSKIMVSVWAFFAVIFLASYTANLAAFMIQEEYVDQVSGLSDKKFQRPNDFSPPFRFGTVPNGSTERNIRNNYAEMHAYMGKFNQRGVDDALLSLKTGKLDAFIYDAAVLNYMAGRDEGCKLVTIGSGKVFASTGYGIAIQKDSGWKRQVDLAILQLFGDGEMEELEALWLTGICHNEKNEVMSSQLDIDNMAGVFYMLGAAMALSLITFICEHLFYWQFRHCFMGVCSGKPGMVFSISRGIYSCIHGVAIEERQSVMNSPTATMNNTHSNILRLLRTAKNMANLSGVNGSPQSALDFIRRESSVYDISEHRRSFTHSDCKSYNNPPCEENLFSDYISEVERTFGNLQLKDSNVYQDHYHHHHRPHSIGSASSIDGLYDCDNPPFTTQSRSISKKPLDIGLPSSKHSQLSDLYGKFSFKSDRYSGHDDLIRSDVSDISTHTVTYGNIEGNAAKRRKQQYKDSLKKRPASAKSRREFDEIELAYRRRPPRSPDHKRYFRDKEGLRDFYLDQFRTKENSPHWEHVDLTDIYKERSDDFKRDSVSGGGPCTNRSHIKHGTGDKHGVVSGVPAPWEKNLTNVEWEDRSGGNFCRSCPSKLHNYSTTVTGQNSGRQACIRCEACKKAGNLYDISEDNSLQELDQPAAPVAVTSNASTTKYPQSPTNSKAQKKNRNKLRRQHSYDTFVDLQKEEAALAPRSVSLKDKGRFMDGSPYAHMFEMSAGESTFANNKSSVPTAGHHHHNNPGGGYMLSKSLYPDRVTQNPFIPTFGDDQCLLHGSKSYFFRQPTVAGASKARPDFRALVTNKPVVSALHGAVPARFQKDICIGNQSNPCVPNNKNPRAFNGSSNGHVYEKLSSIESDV
Test: Mg2+ block of glutamate currents in HEK293 cells (concentration–inhibition, I–V, trapping model)
Settings: read-out: Dissociation constant for Mg^2+ binding at −60 mV; trapping block model, −60 mV
Readout type: Kd (µM)
Answer in µM, number only, no unit symbol.

[Q] I'd like to know its Kd. The molecule in question is [Mg+2] [Mg^2+]
[A] 123
